Biological target: T1, Human IL-11 (human, UniProt P20809 22-199)
T1 construct: Recombinant human IL-11 (GenScript Cat. No. Z03108-1) or IL-11 secreted by human cells; the mature form is said to have 178 residues; also called recombinant human IL-11; endogenously produced IL-11
T1 sequence: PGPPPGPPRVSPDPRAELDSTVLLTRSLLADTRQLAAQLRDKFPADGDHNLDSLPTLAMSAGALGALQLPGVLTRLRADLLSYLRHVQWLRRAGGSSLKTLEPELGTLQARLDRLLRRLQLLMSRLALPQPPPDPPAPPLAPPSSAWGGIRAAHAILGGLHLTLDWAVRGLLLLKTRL
Assay: ELISA on coated recombinant human IL-11 (100 ng/well), scFv-Fc
Reported EC50 values for a set of binders
Your answer is read as µg/mL, so omit the unit and give the number.

# count of solved cases: 6
binder="YU100-A12 (antibody) QVQLVESGGGVVQPGRSLRLSCAASGFTFSSYGMHWVRQAPGKGLEWVAVISYDGSNKYYADSVKGRFTISRDNSKNTLYLQMNSLRAEDTAVYYCAKIGATDPLDYWGQGTLVTVSSGSASAPKLEEGEFSEARVLPVLTQPRSVSGSPGQSVTISCTGTSSDVGGYNYVSWYQQHPGKAPKLMIYDVSKRPSGVPDRFSGSKSGDTASLTISGLQAEDEADYYCSSYAGSYTWVFGGGTKLTVL" test_readout=EC50 measurement=0.023
binder="YU100-E08 (antibody) QVQLVQSGGGVVQPGRSLRLSCAASGFTFSSYAMHWVRQAPGKGLEWVAVISYDGSNKYYADSVKGRFTISRDNSKNTLYLQMNSLRAEDTAVYYCARIMGYDYGDYDVVDYWGQGTLVTVSSGSASAPKLEEGEFSEARVQSALTQPRSVSGSPGQSVTISCTGTSSDVGGYNYVSWYQQHPGKAPKLMIYDVSRRPSGVPDRFSGSKSGNTASLTISGLQAEDEADYYCCSYAGNYTWMFGGGTKLTVL" test_readout=EC50 measurement=0.032
binder="YU100-A10 (antibody) EVQLVESGGGVVQPGRSLRLSCAASGFTFSSYGMHWVRQAPGKGLEWVAVISYDGSNKYYADSVKGRFTISRDNSKNTLYLQMNSLRAEDTAVYYCAKIGATDPLDYWGQGTLVTVSSGSASAPKLEEGEFSEARVLPVLTQPASVSGSPGQSITISCTGTSSDVGAYNYVSWYQQHPGKAPELMIYDVSNRPSGVSNRFSGSKSGNTASLTISGLQPEDEADYYCSSFTTSIAWVFGGGTKLTVL" test_readout=EC50 measurement=0.023
binder="YU112-B06 (antibody) QVQLVESGGGVVQPGRSLRLSCAASGFTFSSYGMHWVRQAPGKGLEWVAVISYDGSNKYYADSVKGRFTISRDNSKNTLYLQMNSLRAEDTAVYYCAKIGATDPLDYWGQGTLVTVSSGSASAPKLEEGEFSEARVQSALTQPASVSGSPGQSITISCTGTSSDVGGYNYVSWYQQHPGKAPKLMIYDVSNRPSGVSNRFSGSKSGNTASLTIFGLQAEDEADYYCSSYTSSSSWVFGGGTKLTVL" test_readout=EC50 measurement=0.02
binder="YU100-E05 (antibody) EVQLVQSGGGVVQPGRSLRLSCAASGFTFSSYGMHWVRQAPGKGLEWVAVISYDGSNKYYADSVKGRFTISRDNSKNTLYLQMNSLRAEDTAVYYCAKIGATDPLDYWGQGTLVTVSSGSASAPKLEEGEFSEARVQAVLTQPRSVSGSPGQSVTISCTGTSSDVGGYNYVSWYQQHPGKAPKLMIYDVSKRPSGVPDRFSGSKSGNTASLTISGLQAEDEADYYCCSYAGSYSWVFGGGTKLTVLGQPKAAPSVTLFPPSS" test_readout=EC50 measurement=0.027
binder="YU100-B01 (antibody) QVQLVQSGGGVVQPGRSLRLSCAASGFTFSSYGMHWVRQAPGKGLEWVAVISYDGSNKYYADSVKGRFTISRDNSKNTLYLQMNSLRAEDTAVYYCAKIGATDPLDYWGQGTLVTVSSGSASAPKLEEGEFSEARVQSALTQPRSVSGSPGQSVTISCTGTNTDVGAYNYVSWYQQYPGKAPKLIIYDVSKRPSGVPDRFSGSKSGNTASLTISGLQAEDEADYYCCSYAGSYSWVFGGGTKLTVL" test_readout=EC50 measurement=0.023

Moving on to another binder below.
Item under review: YU100-H09 (antibody) QVQLVQSGGGVVQPGRSLRLSCAASGFTFSSYAMHWVRQAPGKGLEWVAVISYDGSNKYYADSVKGRFTISRDNSKNTLYLQMNSLRAEDTAVYYCARIMGYDYGDYDVVDYWGQGTLVTVSSGSASAPKLEEGEFSEARVQSALTQPASVSGSPGQSITISCTGTSSDVGGYNYVSWYQQHPGKAPKLMIYDVSNRPSGVSNRFSGSKSGNTASLTISGLQAEDEADYYCCSYAGSYTWVFGGGTKLTVL . Reported EC50?
0.028
